# assay text: Test on pharmacokinetics and bioavailability of rats
# Assay type: in vivo, SD rats
# condition notes: rat, plasma; male SD rats, single dose 2.5 mg/kg, oral administration; read-out: Tmax

[
  {
    "compound": "[2H]C([2H])([2H])c1c(Br)c2c(c(C([2H])([2H])[2H])c1Br)C=C(C(=O)O)C(C(F)(F)F)O2 (stereo not drawn) [GIBH-1051]",
    "Tmax / min": 41.3
  },
  {
    "compound": "[2H]C([2H])([2H])c1cc2c(c(C([2H])([2H])[2H])c1)OC(C(F)(F)F)C(C(=O)O)=C2 (stereo not drawn) [GIBH-1016]",
    "Tmax / min": 11.2
  },
  {
    "compound": "[2H]C([2H])([2H])c1cc(Cl)c2c(c1)C=C(C(=O)O)C(C(F)(F)F)O2 (stereo not drawn) [GIBH-1018]",
    "Tmax / min": 16.3
  }
]

* * *

# assay text: Test on pharmacokinetics and bioavailability of rats
# Format: in vivo, SD rats
# condition notes: male SD rats, single dose 2.5 mg/kg, oral; calculated according AUC data
assay endpoint: BA (%)

[
  {
    "molecule": "[2H]C([2H])([2H])c1c(Br)c2c(c(C([2H])([2H])[2H])c1Br)C=C(C(=O)O)C(C(F)(F)F)O2 (stereo not shown)",
    "assay endpoint": "BA",
    "value observed": 63.7
  },
  {
    "molecule": "[2H]C([2H])([2H])c1cc(Cl)cc2c1OC(C(F)(F)F)C(C(=O)O)=C2 (stereo not shown)",
    "assay endpoint": "BA",
    "value observed": 110.7
  },
  {
    "molecule": "[2H]C([2H])([2H])c1cc(Cl)c2c(c1)C=C(C(=O)O)C(C(F)(F)F)O2 (stereo not shown)",
    "assay endpoint": "BA",
    "value observed": 90.6
  },
  {
    "molecule": "[2H]C([2H])([2H])c1cc2c(c(C([2H])([2H])[2H])c1)OC(C(F)(F)F)C(C(=O)O)=C2 (stereo not shown)",
    "assay endpoint": "BA",
    "value observed": 65.1
  }
]

* * *

In this section, each of the compounds is paired with its reported Tmax.
# assay text: Test on pharmacokinetics and bioavailability of rats
# Type: in vivo, SD rats
# condition notes: rat, plasma; male SD rats, single dose 25 mg/kg, oral administration; read-out: Tmax

[
  {
    "compound": "[2H]C([2H])([2H])c1ccc2c(c1)C=C(C(=O)O)C(C(F)(F)F)O2 (centres unmarked)",
    "Tmax / h": 0.563
  },
  {
    "compound": "[2H]C([2H])([2H])C([2H])([2H])c1cc(OC(F)(F)F)cc2c1OC(C(F)(F)F)C(C(=O)O)=C2 (centres unmarked)",
    "Tmax / h": 1.62
  }
]

* * *

# Test system: generation of PGE2 in the whole blood
# assay text: whole blood assay, lipopolysaccharide-induced yield of PGE2 in heparin blood (ELISA)
# Assay type: cell-based, human
# condition notes: Homo sapiens; blood of healthy donors, heparin tube, lipopolysaccharide 100 μg/mL, overnight at 37° C.; read-out: inhibition IC50 onto generation of PGE2 in the whole blood test
pIC50: −log10 of the molar value.
In this section, each of the compounds is paired with its reported pIC50.

[
  {
    "compound": "[2H]C([2H])([2H])c1cc2c(c(C([2H])([2H])[2H])c1Br)C=C(C(=O)O)C(C(F)(F)F)O2 (stereo not drawn) [GIBH-1010]",
    "inequality symbol": "<",
    "pIC50": 4.00
  },
  {
    "compound": "[2H]C([2H])([2H])C([2H])([2H])c1cc(OC(F)(F)F)cc2c1OC(C(F)(F)F)C(C(=O)O)=C2 (stereo not drawn) [GIBH-1006]",
    "inequality symbol": "=",
    "pIC50": 4.10
  },
  {
    "compound": "[2H]C([2H])([2H])c1cc2c(c(C([2H])([2H])[2H])c1Cl)C=C(C(=O)O)C(C(F)(F)F)O2 (stereo not drawn) [GIBH-1008]",
    "inequality symbol": "=",
    "pIC50": 4.11
  }
]

Ref: patent US9371305B2
